Hello, the source for this data is ChEMBL document CHEMBL1139239, in case you need it.

// values below are reported selectivity ratio
Experiment: Therapeutic index, ratio of MHC for RBC to MIC for Escherichia coli MG1655
Conditions: red blood cells (RBC); read-out: TI

Study these solved cases before continuing.
Give its selectivity ratio value. Item: C[C@H](CCC(=O)NCCCNCCCCNCCCN)[C@H]1CCC2=C3CC[C@@H]4C[C@H](O)CC[C@]4(C)[C@H]3C[C@H](O)[C@@]21C 5

Give its selectivity ratio value. Item: C[C@H](CCC(=O)NCCCNCCCCNCCCN)[C@H]1CC[C@H]2[C@@H]3[C@H](O)C[C@@H]4C[C@H](O)CC[C@]4(C)[C@H]3C[C@H](O)[C@]12C < 1

Give its selectivity ratio value. Item: C[C@H](CCC(=O)NCCCNCCCCNCCCNC(=O)CC[C@H](C)[C@@H]1CC[C@@H]2[C@@H]3[C@@H](C[C@@H](O)[C@]21C)[C@]1(C)CC[C@H](O)C[C@@H]1C[C@@H]3O)[C@H]1CC[C@H]2[C@@H]3[C@H](O)C[C@@H]4C[C@H](O)CC[C@]4(C)[C@H]3C[C@H](O)[C@]12C 15

Give its selectivity ratio value. Item: C[C@H](CCC(=O)NCCCNCCCCNCCCN)[C@H]1CC[C@H]2[C@@H]3CC[C@@H]4C[C@H](O)CC[C@]4(C)[C@H]3CC[C@]12C 2

***
Give its selectivity ratio value. Item: C[C@H](CCC(=O)NCCCNCCCCNCCCN)[C@H]1CC[C@H]2[C@@H]3CC=C4C[C@@H](O)CC[C@]4(C)[C@H]3CC[C@]12C 9

====

Assay: Toxicity against RBC assessed as hemolytic activity
Type: cell-based
Details: erythrocyte
// values below are reported MHC
The answer is to be given in µM; state only the numeric part.

Study these solved cases before continuing.
Give its MHC value. Item: C[C@H](CCC(=O)NCCCNCCCCNCCCN)[C@H]1CCC2=C3CC[C@@H]4C[C@H](O)CC[C@]4(C)[C@H]3C[C@H](O)[C@@]21C 500

Give its MHC value. Item: C[C@H](CCC(=O)NCCCNCCCCNCCCN)[C@H]1CC[C@H]2[C@@H]3[C@H](O)C[C@@H]4C[C@H](O)CC[C@]4(C)[C@H]3C[C@H](O)[C@]12C 500

Give its MHC value. Item: C[C@H](CCC(=O)NCCCNCCCCNCCCN)[C@H]1CC[C@H]2[C@@H]3CC[C@@H]4C[C@H](O)CC[C@]4(C)[C@H]3CC[C@]12C 500

Give its MHC value. Item: C[C@H](CCC(=O)NCCCNCCCCNCCCNC(=O)CC[C@H](C)[C@@H]1CC[C@@H]2[C@@H]3[C@@H](C[C@@H](O)[C@]21C)[C@]1(C)CC[C@H](O)C[C@@H]1C[C@@H]3O)[C@H]1CC[C@H]2[C@@H]3[C@H](O)C[C@@H]4C[C@H](O)CC[C@]4(C)[C@H]3C[C@H](O)[C@]12C 250

Now examine the next entry.
Give its MHC value. Item: C[C@H](CCC(=O)NCCCNCCCCNCCCN)[C@H]1CC[C@H]2[C@@H]3CC=C4C[C@@H](O)CC[C@]4(C)[C@H]3CC[C@]12C 1000

====

// values below are reported selectivity ratio
Assay: Therapeutic index, ratio of MHC for RBC to MIC for Bacillus subtilis ATCC 6051
Conditions: red blood cells (RBC); read-out: TI
// print number alone

Give its selectivity ratio value. Item: C[C@H](CCC(=O)NCCCNCCCCNCCCN)[C@H]1CCC2=C3CC[C@@H]4C[C@H](O)CC[C@]4(C)[C@H]3C[C@H](O)[C@@]21C 18

====

System: Bacillus subtilis
Experiment: Antibacterial activity against Bacillus subtilis ATCC 6051 after 20 hrs
Type: functional
Conditions: ATC6051, 20 h
// values below are reported MIC
The answer is to be given in µM; state only the numeric part.

Study these solved cases before continuing.
Give its MIC value. Item: C[C@H](CCC(=O)NCCCNCCCCNCCCN)[C@H]1CCC2=C3CC[C@@H]4C[C@H](O)CC[C@]4(C)[C@H]3C[C@H](O)[C@@]21C 28

Give its MIC value. Item: C[C@H](CCC(=O)NCCCNCCCCNCCCN)[C@H]1CC[C@H]2[C@@H]3CC[C@@H]4C[C@H](O)CC[C@]4(C)[C@H]3CC[C@]12C 57

Give its MIC value. Item: C[C@H](CCC(=O)NCCCNCCCCNCCCN)[C@H]1CC[C@H]2[C@@H]3CC=C4C[C@@H](O)CC[C@]4(C)[C@H]3CC[C@]12C 57

Now examine the next entry.
Give its MIC value. Item: C[C@H](CCC(=O)NCCCNCCCCNCCCNC(=O)CC[C@H](C)[C@@H]1CC[C@@H]2[C@@H]3[C@@H](C[C@@H](O)[C@]21C)[C@]1(C)CC[C@H](O)C[C@@H]1C[C@@H]3O)[C@H]1CC[C@H]2[C@@H]3[C@H](O)C[C@@H]4C[C@H](O)CC[C@]4(C)[C@H]3C[C@H](O)[C@]12C 4

====

// values below are reported selectivity ratio
Test: Therapeutic index, ratio of MHC for RBC to MIC for Bacillus subtilis ATCC 6051
Conditions: red blood cells (RBC); read-out: TI

Give its selectivity ratio value. Item: C[C@H](CCC(=O)NCCCNCCCCNCCCN)[C@H]1CC[C@H]2[C@@H]3[C@H](O)C[C@@H]4C[C@H](O)CC[C@]4(C)[C@H]3C[C@H](O)[C@]12C < 1

Give its selectivity ratio value. Item: C[C@H](CCC(=O)NCCCNCCCCNCCCN)[C@H]1CC[C@H]2[C@@H]3CC=C4C[C@@H](O)CC[C@]4(C)[C@H]3CC[C@]12C 18

Give its selectivity ratio value. Item: C[C@H](CCC(=O)NCCCNCCCCNCCCN)[C@H]1CC[C@H]2[C@@H]3CC[C@@H]4C[C@H](O)CC[C@]4(C)[C@H]3CC[C@]12C 9

***
Give its selectivity ratio value. Item: C[C@H](CCC(=O)NCCCNCCCCNCCCNC(=O)CC[C@H](C)[C@@H]1CC[C@@H]2[C@@H]3[C@@H](C[C@@H](O)[C@]21C)[C@]1(C)CC[C@H](O)C[C@@H]1C[C@@H]3O)[C@H]1CC[C@H]2[C@@H]3[C@H](O)C[C@@H]4C[C@H](O)CC[C@]4(C)[C@H]3C[C@H](O)[C@]12C 61
